System: MLKL phosphorylation in HT29-L23 human colorectal adenocarcinoma cells
Assay: MLKL phosphorylation high-content assay
Format: cell-based
Settings: Homo sapiens, 6 h, read-out: pMLKL IC50, HT29-L23 cells; necroptosis induced with TNFα, SMAC mimetic and Z-VAD, 6 h; maximal inhibition defined by Nec1s
measure: IC50 (nM)
Numbers only, in nM.

[
  {
    "molecule": "[2H]C([2H])(CC([2H])(O)c1ccc(Cl)cc1)NC(=O)c1c(C)ccc(-c2ccn3nc(N)nc3c2)c1F (racemic)",
    "measurement target": "MLKL phosphorylation in HT29-L23 human colorectal adenocarcinoma cells",
    "uom": "nM",
    "measured number": 1.1
  }
]

Provide IC50 for all items below, preserving their order.
1. Cc1ccc(-c2ccn3nc(N)nc3c2)c(F)c1C(=O)NCC(F)(F)C(O)c1c(F)cc(F)cc1F (single isomer, unassigned)
2. Cc1ccc(-c2ccn3nc(N)nc3c2)c(F)c1C(=O)NCCC(C)(O)c1ccc(C#N)cc1 (stereo not shown)
3. Cc1ccc(-c2ccn3nc(N)nc3c2)c(F)c1C(=O)NCC(F)(F)C(O)(c1ccc(F)cc1)C(F)F (stereo not shown)

1. 1
2. 38
3. 0.7
